Assay: Blood-brain barrier penetration, brain-to-plasma ratio in rat
Assay type: in vivo
Experimental conditions: Sprague-Dawley rat, IV 1 mg/kg, 0.25 hour, n=3

{"columns": ["Compound", "Kp at 0.25 h"],
 "data": [
  ["CN1CC[C@@H]1Cn1cc(C(=O)C2COc3ccc(Cl)cc3C2)c2ccc(-c3cn[nH]c3Cl)cc21 (stereo partly shown)", 0.4],
  ["CN1CC[C@H]1Cn1nc(C(=O)C2COc3ccc(F)cc3C2)c2ccc(-c3c[nH]nc3F)cc21 (stereo partly shown)", 12.4],
  ["CCN(CC)CCn1cc(C(=O)C2COc3ccc(OC)cc3C2)c2ccc(-c3cn[nH]c3Cl)cc21 (stereo not shown)", 1.05],
  ["CNCCn1cc(C(=O)C2COc3ccc(OC)cc3C2)c2ccc(-c3cn[nH]c3F)cc21 (stereo not shown)", 1.37]
]}

* * *

Assay: Blood-brain barrier penetration, brain-to-plasma ratio in mouse
Type: in vivo
Experimental conditions: CD-1 mouse, IV 1 mg/kg, 0.25 hour, n=3
A collection of compounds and their measured Kp at 0.25 h

{"columns": ["Compound", "Kp at 0.25 h"],
 "data": [
  ["CCN(CC)CCn1cc(C(=O)C2COc3ccc(OC)cc3C2)c2ccc(-c3cn[nH]c3Cl)cc21 (stereo not shown)", 0.73],
  ["CNCCn1cc(C(=O)C2COc3ccc(OC)cc3C2)c2ccc(-c3cn[nH]c3F)cc21 (stereo not shown)", 0.96],
  ["CN1CC[C@H]1Cn1nc(C(=O)C2COc3ccc(F)cc3C2)c2ccc(-c3c[nH]nc3F)cc21 (stereo partly shown)", 7.32],
  ["CN1CC[C@@H]1Cn1cc(C(=O)C2COc3ccc(Cl)cc3C2)c2ccc(-c3cn[nH]c3Cl)cc21 (stereo partly shown)", 0.67]
]}

* * *

A collection of compounds and their measured pIC50
System under test: Recombinant ROCK1 (amino acids 1-477) (Homo sapiens)
Construct: Recombinant ROCK1 (amino acids 1-477)
Sequence (Q13464 1-477): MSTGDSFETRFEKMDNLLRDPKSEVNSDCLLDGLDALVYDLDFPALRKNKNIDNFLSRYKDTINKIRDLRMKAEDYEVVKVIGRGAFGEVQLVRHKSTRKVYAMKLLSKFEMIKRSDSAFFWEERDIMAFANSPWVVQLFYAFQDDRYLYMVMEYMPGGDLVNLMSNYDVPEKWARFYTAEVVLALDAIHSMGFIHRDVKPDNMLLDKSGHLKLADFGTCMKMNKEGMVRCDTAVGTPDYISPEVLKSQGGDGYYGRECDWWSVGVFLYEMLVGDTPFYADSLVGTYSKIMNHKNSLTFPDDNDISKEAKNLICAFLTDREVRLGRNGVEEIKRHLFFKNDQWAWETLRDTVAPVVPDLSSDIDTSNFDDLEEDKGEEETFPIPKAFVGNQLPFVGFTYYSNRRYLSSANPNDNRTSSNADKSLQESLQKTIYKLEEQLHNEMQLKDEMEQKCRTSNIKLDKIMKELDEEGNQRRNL
Assay: ROCK inhibition assay, LANCE Ultra TR-FRET (ROCK1)
Experimental conditions: 1 mM of ATP
pIC50: −log10 of the molar value.

{"columns": ["Compound", "pIC50"],
 "data": [
  ["CN(C)CCn1cc(C(=O)C2COc3ccc(Cl)cc3O2)c2ccc(-c3c[nH]nc3Cl)cc21 (stereo not shown) [Compound 5-17]", "< 6.30"],
  ["CN(C)CCn1cc(C(=O)C2COc3ccc(Cl)cc3C2)c2cnc(-c3cn[nH]c3F)nc21 (stereo not shown) [Compound 1-34]", "< 6.30"],
  ["C[C@H](Cn1cc(C(=O)C2COc3ccc(Cl)cc3C2)c2ccc(-c3cn[nH]c3Cl)cc21)N(C)C (stereo partly shown) [Compound 2-15]", "6.30 to 6.70"],
  ["COc1ccc2c(c1)CC(C(=O)c1cn(C[C@H]3CCN3C)c3cc(-c4cn[nH]c4Cl)ccc13)CO2 (stereo partly shown) [Compound 1-50]", "< 6.30"],
  ["COc1ccc2c(c1)C[C@H](C(=O)c1cn(C[C@H]3CCN3CCF)c3cc(-c4c[nH]nc4Cl)ccc13)CO2 [Compound 5-9]", "6.30 to 6.70"],
  ["CN(C)CCn1cc(C(=O)[C@@H]2COc3ccc(Cl)cc3C2)c2ccc(-c3cn[nH]c3F)cc21 [Compound 1-26]", "6.30 to 6.70"],
  ["COc1ccc2c(c1)CC(C(=O)c1cn(CCN(C)C)c3nc(-c4c[nH]nc4Cl)ccc13)CO2 (stereo not shown) [Compound 1-13]", "< 6.30"]
]}

* * *

System under test: Recombinant ROCK2 (amino acids 5-554) (Homo sapiens)
Construct: ROCK2 (amino acids 5-554)
Assay: ROCK inhibition assay, LANCE Ultra TR-FRET (ROCK2)
Experimental conditions: 1 mM of ATP

{"columns": ["Compound", "System under test", "IC50"],
 "data": [
  ["C[C@@H](N)Cn1cc(C(=O)C2COc3ccc(Cl)cc3C2)c2ccc(-c3c[nH]nc3Cl)cc21 (stereo partly drawn)", "Recombinant ROCK2 (amino acids 5-554) (Homo sapiens)", "< 20 nM"],
  ["COc1n[nH]cc1-c1ccc2c(C(=O)C3COc4ccc(Cl)cc4C3)cn(C[C@@H](C)N)c2c1 (stereo partly drawn)", "Recombinant ROCK2 (amino acids 5-554) (Homo sapiens)", "< 20 nM"],
  ["C[C@H](Cn1cc(C(=O)C2COc3ccc(Cl)cc3C2)c2ccc(-c3cn[nH]c3Cl)cc21)N(C)C (stereo partly drawn)", "Recombinant ROCK2 (amino acids 5-554) (Homo sapiens)", "< 20 nM"],
  ["CCN(CC)CCn1cc(C(=O)[C@@H]2COc3ccc(OC)cc3C2)c2ccc(-c3cn[nH]c3Cl)cc21 [Compound 3-21]", "Recombinant ROCK2 (amino acids 5-554) (Homo sapiens)", "21 to 200 nM"],
  ["COc1ccc2c(c1)C[C@H](C(=O)c1cn(C[C@H]3CCN3CC(F)(F)F)c3cc(-c4c[nH]nc4Cl)ccc13)CO2", "Recombinant ROCK2 (amino acids 5-554) (Homo sapiens)", "21 to 200 nM"],
  ["COc1n[nH]cc1-c1ccc2c(C(=O)C3COc4ccc(F)cc4C3)nn(CCN(C)C)c2c1 (stereo not drawn)", "Recombinant ROCK2 (amino acids 5-554) (Homo sapiens)", "21 to 200 nM"]
]}

* * *

System under test: Recombinant ROCK1 (amino acids 1-477) (Homo sapiens)
Construct: Recombinant ROCK1 (amino acids 1-477)
Assay: ROCK inhibition assay, LANCE Ultra TR-FRET (ROCK1)
Experimental conditions: 1 mM of ATP
pIC50: −log10 of the molar value.

{"columns": ["Molecule", "pIC50"],
 "data": [
  ["CN1CC[C@@H]1Cn1cc(C(=O)C2COc3ccc(Cl)cc3C2)c2ccc(-c3cn[nH]c3F)cc21 (stereo partly shown) [Compound 1-57]", "< 6.30"],
  ["COc1ccc2c(c1)CC(C(=O)c1cn(C[C@H]3CCN3)c3cc(-c4cn[nH]c4Cl)ccc13)CO2 (stereo partly shown) [Compound 1-35]", "6.70 to 7.68"],
  ["CCN(C)CCn1cc(C(=O)[C@@H]2COc3ccc(OC)cc3C2)c2ccc(-c3cn[nH]c3Cl)cc21 [Compound 3-28]", "< 6.30"],
  ["CN1CC[C@@H]1Cn1cc(C(=O)C2COc3ccc(Cl)cc3C2)c2ccc(-c3cn[nH]c3Cl)cc21 (stereo partly shown) [Compound 1-55]", "< 6.30"],
  ["NCCn1cc(C(=O)C2COc3ccc(Cl)cc3C2)c2cnc(-c3c[nH]nc3Cl)cc21 (stereo not shown) [Compound 2-1]", "6.70 to 7.68"],
  ["CNCCn1cc(C(=O)C2COc3ccc(F)cc3C2)c2ccc(-c3c[nH]nc3Cl)cc21 (stereo not shown) [Compound 3-5]", "6.30 to 6.70"],
  ["CCN1CC[C@@H]1Cn1cc(C(=O)C2COc3ccc(OC)cc3C2)c2ccc(-c3cn[nH]c3Cl)cc21 (stereo partly shown) [Compound 1-58]", "< 6.30"]
]}

* * *

System under test: Recombinant ROCK2 (amino acids 5-554) (Homo sapiens, UniProt O75116)
Construct: ROCK2 (amino acids 5-554)
Sequence (O75116 5-554): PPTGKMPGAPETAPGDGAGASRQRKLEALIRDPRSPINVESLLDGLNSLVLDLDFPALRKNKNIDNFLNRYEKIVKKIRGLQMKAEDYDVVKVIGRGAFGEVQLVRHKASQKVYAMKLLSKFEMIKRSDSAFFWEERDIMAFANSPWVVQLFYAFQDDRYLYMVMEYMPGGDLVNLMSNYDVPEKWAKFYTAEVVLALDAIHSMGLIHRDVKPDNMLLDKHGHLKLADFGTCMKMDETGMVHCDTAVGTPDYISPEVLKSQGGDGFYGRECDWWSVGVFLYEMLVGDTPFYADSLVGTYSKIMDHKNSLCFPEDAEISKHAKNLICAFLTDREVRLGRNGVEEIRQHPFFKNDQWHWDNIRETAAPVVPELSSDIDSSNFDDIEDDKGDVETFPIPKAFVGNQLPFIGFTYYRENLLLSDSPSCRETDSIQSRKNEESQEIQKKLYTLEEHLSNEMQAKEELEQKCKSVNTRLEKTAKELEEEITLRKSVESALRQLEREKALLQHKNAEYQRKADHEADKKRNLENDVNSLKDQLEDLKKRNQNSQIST
Assay: ROCK inhibition assay, LANCE Ultra TR-FRET (ROCK2)
Experimental conditions: 1 mM of ATP
pIC50: −log10 of the molar value.

{"columns": ["Molecule", "pIC50"],
 "data": [
  ["COc1[nH]ncc1-c1ccc2c(C(=O)C3COc4ccc(Cl)cc4O3)cn(CCN(C)C)c2c1 (stereo not shown)", "6.30 to 6.70"],
  ["COc1ccc2c(c1)CC(C(=O)c1cn(CCN(C)C)c3cc(-c4cn[nH]c4OC)ccc13)CO2 (stereo not shown)", "6.70 to 7.68"],
  ["COc1[nH]ncc1-c1ccc2c(C(=O)[C@@H]3COc4ccc(F)cc4C3)cn(CCN(C)C)c2c1", "> 7.70"],
  ["COc1ccc2c(c1)CC(C(=O)c1cn(C[C@@H]3CCN3)c3cc(-c4cn[nH]c4Cl)ccc13)CO2 (stereo partly shown)", "> 7.70"],
  ["Cc1nocc1-c1ccc2c(C(=O)C3COc4ccc(F)cc4C3)cn(CCN(C)C)c2c1 (stereo not shown)", "< 6.30"],
  ["C[C@H](Cn1cc(C(=O)[C@@H]2COc3ccc(Cl)cc3C2)c2ccc(-c3cn[nH]c3F)cc21)N(C)C", "> 7.70"],
  ["O=C(c1cn(CCN2CCC2)c2nc(-c3c[nH]nc3Cl)ccc12)C1COc2ccc(F)cc2C1 (stereo not shown)", "> 7.70"]
]}

* * *

System under test: Recombinant ROCK1 (amino acids 1-477) (Homo sapiens)
Construct: Recombinant ROCK1 (amino acids 1-477)
Assay: ROCK inhibition assay, LANCE Ultra TR-FRET (ROCK1)
Experimental conditions: 1 mM of ATP
A collection of compounds and their measured IC50

{"columns": ["Compound", "IC50"],
 "data": [
  ["COc1[nH]ncc1-c1ccc2c(C(=O)C3COc4ccc(Cl)cc4C3)cn(CCN(C)C)c2c1 (stereo not drawn)", "> 0.501 µM"],
  ["CN(C)CCn1nc(C(=O)[C@@H]2COc3ccc(F)cc3C2)c2ccc(-c3c[nH]nc3Cl)cc21", "0.201 to 0.5 µM"],
  ["CN(C)CCn1cc(C(=O)C2COc3ccc(Cl)cc3C2)c2ccc(-c3cn[nH]c3F)cc21 (stereo not drawn)", "> 0.501 µM"],
  ["COc1ccc2c(c1)C[C@H](C(=O)c1cn(C[C@@H]3CCN3C)c3cc(-c4cn[nH]c4Cl)ncc13)CO2", "> 0.501 µM"],
  ["CN(C)CCn1cc(C(=O)C2COc3ccc(Cl)cc3C2)c2ccc(-c3cn[nH]c3F)nc21 (stereo not drawn)", "> 0.501 µM"],
  ["COc1n[nH]cc1-c1ccc2c(C(=O)C3COc4ccc(F)cc4C3)nn(CCN(C)C)c2c1 (stereo not drawn)", "> 0.501 µM"],
  ["CN(C)CCn1nc(C(=O)C2COc3ccc(F)cc3C2)c2ccc(-c3c[nH]nc3F)cc21 (stereo not drawn)", "0.201 to 0.5 µM"],
  ["C[C@@H](N)Cn1cc(C(=O)C2COc3ccc(Cl)cc3C2)c2ccc(-c3c[nH]nc3Cl)cc21 (stereo partly drawn)", "0.021 to 0.2 µM"],
  ["COc1n[nH]cc1-c1ccc2c(C(=O)C3COc4ccc(Cl)cc4C3)nn(CCN(C)C)c2c1 (stereo not drawn)", "> 0.501 µM"],
  ["COc1ccc2c(c1)C[C@H](C(=O)c1cn(CCN(C)C)c3cc(-c4c[nH]nc4Cl)ccc13)CO2", "> 0.501 µM"],
  ["CN(C)CCn1cc(C(=O)C2COc3ccc(Cl)cc3C2)c2cnc(-c3cn[nH]c3Cl)nc21 (stereo not drawn)", "> 0.501 µM"],
  ["COc1ccc2c(c1)CC(C(=O)c1cn(C[C@H]3CCN3)c3cc(-c4cn[nH]c4F)ccc13)CO2 (stereo partly drawn)", "0.201 to 0.5 µM"],
  ["CN(C)CCn1cc(C(=O)C2COc3ccc(F)cc3C2)c2ccc(-c3c[nH]nc3Cl)cc21 (stereo not drawn)", "> 0.501 µM"],
  ["NC1(Cn2cc(C(=O)C3COc4ccc(F)cc4C3)c3ccc(-c4cn[nH]c4Cl)cc32)CC1 (stereo not drawn)", "0.021 to 0.2 µM"],
  ["CCN(CC)CCn1cc(C(=O)C2COc3ccc(Cl)cc3C2)c2ccc(-c3cn[nH]c3Cl)cc21 (stereo not drawn)", "> 0.501 µM"]
]}
